Entries and their melting point values follow.

Examples with their reported melting point follow.
> print(dat)
                                   compound  measured.result
1  CN1CCC(=C2c3ccc(Cl)cc3CC(=O)c3sccc32)CC1    150 to 151 °C
2  CC(C)(C)OC(=O)ON1C(C)(C)CC(OC(=O)c2ccccc2)CC1(C)C    109 to 111 °C
3  CC(=NOCc1ccc(Cl)s1)C1=C(O)CC(C2CCCSC2)CC1=O (stereo not given)    154 to 155 °C
4  O=C(Nc1ccc(-c2c[nH]c(=O)cn2)cc1)c1ccncc1    303 to 308 °C
5        O=C1Nc2cccc(Cl)c2C(=O)N2CC[C@@H]12    225 to 228 °C
6  COc1ccc(C2=NN(c3ccc(CCBr)cc3)C(=O)[C@H]3CC=CC[C@@H]23)cc1OC (relative stereo)    126 to 127 °C
7           COc1cc(Cl)cnc1OCC#Cc1cc(Cl)ccn1           129 °C
8  COc1cccc(C(=O)c2[nH]c3cc(Cl)ccc3c2NC(C)=O)c1    161 to 162 °C
9  CC(c1oc2ccccc2c(=O)c1-c1cccc(F)c1)n1nc(-c2ccc3cc[nH]c3c2)c2c(N)ncnc21 (stereo not given)    222 to 225 °C

What value of melting point has been recorded for this entry: `Cc1ccccc1C(=O)N1CCC(=O)c2ccc(Cl)cc21` 106 to 108 °C
